Test system: CCRF-CEM
Measurement notes: Concentration required to reduce 50% of the number of CEM/O cells in the mock infected cell cultures.
Assay type: functional
Test settings: Homo sapiens
Quantity measured: CC50 (µM)

molecule="CCCCCCCCCCCCOCCOP(=O)(O)OCC1OC(n2cc(C)c(=O)[nH]c2=O)CC1N=[N+]=[N-] (centres undefined)" quantity_measured=CC50 qualifier_operator== reading=76.9
molecule="CCCCCCCCCCCCO[C@H](C)COP(=O)(O)OCC1O[C@@H](n2cc(C)c(=O)[nH]c2=O)C[C@@H]1N=[N+]=[N-] (single isomer, unassigned)" quantity_measured=CC50 qualifier_operator== reading=93
molecule="CCCCCCCCCCCCOC[C@@H](C)OP(=O)(O)OCC1OC(n2cc(C)c(=O)[nH]c2=O)CC1N=[N+]=[N-] (some centres undefined)" quantity_measured=CC50 qualifier_operator== reading=95.9
molecule="Cc1cn([C@H]2C[C@H](N=[N+]=[N-])[C@@H](CO)O2)c(=O)[nH]c1=O [ZIDOVUDINE]" quantity_measured=CC50 qualifier_operator=> reading=100

###

Tested on: CCRF-CEM
Measurement notes: Concentration required to reduce 50% of the number of CEM/O cells in the HIV-2 infected cell cultures.
Assay type: functional, cell-based
Test settings: Homo sapiens
pEC50: −log10 of the molar value.
Listed here: items and their measured pEC50.
Quantity measured: pEC50

molecule="CCCCCCCCCCCCOC[C@H](C)OP(=O)(O)OCC1OC(n2cc(C)c(=O)[nH]c2=O)CC1N=[N+]=[N-] (stereo partly drawn)" target_system=CCRF-CEM reading=6.59
molecule="CCCCCCCCCCCCO[C@H](C)COP(=O)(O)OCC1O[C@@H](n2cc(C)c(=O)[nH]c2=O)C[C@@H]1N=[N+]=[N-] (single isomer, unassigned)" target_system=CCRF-CEM reading=6.30
molecule=CCCCCCCCCCCCO[C@@H](C)COP(=O)(O)OC[C@H]1O[C@@H](n2cc(C)c(=O)[nH]c2=O)C[C@@H]1N=[N+]=[N-] target_system=CCRF-CEM reading=6.46
molecule="Cc1cn(C2CC(N=[N+]=[N-])C(COP(=O)(O)OCCOc3ccc4ccccc4c3)O2)c(=O)[nH]c1=O (stereo not drawn)" target_system=CCRF-CEM reading=7.70
molecule="Cc1cn(C2CC(N=[N+]=[N-])C(COP(=O)(O)OCCOc3ccccc3)O2)c(=O)[nH]c1=O (stereo not drawn)" target_system=CCRF-CEM reading=7.74
molecule="CCCCCCCCCCCCOCCOP(=O)(O)OCC1OC(n2cc(C)c(=O)[nH]c2=O)CC1N=[N+]=[N-] (stereo not drawn)" target_system=CCRF-CEM reading=6.88
molecule="Cc1cn(C2CC(N=[N+]=[N-])C(COP(=O)(O)OCCOc3cccc4ccccc34)O2)c(=O)[nH]c1=O (stereo not drawn)" target_system=CCRF-CEM reading=7.55
molecule="CCCCCCCCCCCCOC[C@@H](C)OP(=O)(O)OCC1OC(n2cc(C)c(=O)[nH]c2=O)CC1N=[N+]=[N-] (stereo partly drawn)" target_system=CCRF-CEM reading=5.57

###

List of CC50 values.
Tested on: CCRF-CEM
Measurement notes: Concentration required to reduce 50% of the number of CEM/O cells in the mock infected cell cultures.
Format: functional
Test settings: Homo sapiens
Quantity measured: CC50

compound="Cc1cn(C2CC(N=[N+]=[N-])C(COP(=O)(O)OCCOc3ccc4ccccc4c3)O2)c(=O)[nH]c1=O (stereo not given)" quantity_measured=CC50 reading="> 125 µM"
compound="Cc1cn(C2CC(N=[N+]=[N-])C(COP(=O)(O)OCCOc3cccc4ccccc34)O2)c(=O)[nH]c1=O (stereo not given)" quantity_measured=CC50 reading="> 125 µM"
compound=CCCCCCCCCCCCO[C@@H](C)COP(=O)(O)OC[C@H]1O[C@@H](n2cc(C)c(=O)[nH]c2=O)C[C@@H]1N=[N+]=[N-] quantity_measured=CC50 reading="94.5 µM"
compound="CCCCCCCCCCCCOC[C@H](C)OP(=O)(O)OCC1OC(n2cc(C)c(=O)[nH]c2=O)CC1N=[N+]=[N-] (stereo not given in full)" quantity_measured=CC50 reading="88 µM"
compound="Cc1cn(C2CC(N=[N+]=[N-])C(COP(=O)(O)OCCOc3ccccc3)O2)c(=O)[nH]c1=O (stereo not given)" quantity_measured=CC50 reading="> 125 µM"

###

Test system: CCRF-CEM
Measurement notes: Concentration required to reduce 50% of the number of CEM/O cells in the HIV-1 infected cell cultures.
Type: functional, cell-based
Test settings: Homo sapiens
pEC50: −log10 of the molar value.
Classify by measured pEC50: 1 (yes) if it is equal to or exceeds 7, 0 (no) if it is smaller.

compound="CCCCCCCCCCCCOC[C@@H](C)OP(=O)(O)OCC1OC(n2cc(C)c(=O)[nH]c2=O)CC1N=[N+]=[N-] (stereo partly drawn)" label_class="0 (no)"
compound="Cc1cn(C2CC(N=[N+]=[N-])C(COP(=O)(O)OCCOc3ccccc3)O2)c(=O)[nH]c1=O (stereo not drawn)" label_class="1 (yes)"
compound="CCCCCCCCCCCCOC[C@H](C)OP(=O)(O)OCC1OC(n2cc(C)c(=O)[nH]c2=O)CC1N=[N+]=[N-] (stereo partly drawn)" label_class="0 (no)"
compound=CCCCCCCCCCCCO[C@@H](C)COP(=O)(O)OC[C@H]1O[C@@H](n2cc(C)c(=O)[nH]c2=O)C[C@@H]1N=[N+]=[N-] label_class="0 (no)"
compound="Cc1cn(C2CC(N=[N+]=[N-])C(COP(=O)(O)OCCOc3cccc4ccccc34)O2)c(=O)[nH]c1=O (stereo not drawn)" label_class="1 (yes)"
compound="CCCCCCCCCCCCO[C@H](C)COP(=O)(O)OCC1O[C@@H](n2cc(C)c(=O)[nH]c2=O)C[C@@H]1N=[N+]=[N-] (single isomer, unassigned)" label_class="0 (no)"
compound="Cc1cn(C2CC(N=[N+]=[N-])C(COP(=O)(O)OCCOc3ccc4ccccc4c3)O2)c(=O)[nH]c1=O (stereo not drawn)" label_class="1 (yes)"

###

Entries and their pEC50 values follow.
Tested on: CEM-TK(+)
Measurement notes: Concentration required to reduce 50% of the number of CEM/TK cells in the HIV-2 infected cell cultures.
Format: functional, cell-based
Test settings: Homo sapiens
pEC50: −log10 of the molar value.
Quantity measured: pEC50

compound="Cc1cn(C2CC(N=[N+]=[N-])C(COP(=O)(O)OCCOc3cccc4ccccc34)O2)c(=O)[nH]c1=O (centres undefined)" quantity_measured=pEC50 reading="< 3.90"
compound=Cc1cn([C@H]2C[C@H](N=[N+]=[N-])[C@@H](CO)O2)c(=O)[nH]c1=O quantity_measured=pEC50 reading="< 4.00"
compound="CCCCCCCCCCCCOC[C@@H](C)OP(=O)(O)OCC1OC(n2cc(C)c(=O)[nH]c2=O)CC1N=[N+]=[N-] (some centres undefined)" quantity_measured=pEC50 reading="< 4.30"
compound="Cc1cn(C2CC(N=[N+]=[N-])C(COP(=O)(O)OCCOc3ccccc3)O2)c(=O)[nH]c1=O (centres undefined)" quantity_measured=pEC50 reading="< 3.90"
compound="CCCCCCCCCCCCOCCOP(=O)(O)OCC1OC(n2cc(C)c(=O)[nH]c2=O)CC1N=[N+]=[N-] (centres undefined)" quantity_measured=pEC50 reading="< 4.30"
compound="CCCCCCCCCCCCOC[C@H](C)OP(=O)(O)OCC1OC(n2cc(C)c(=O)[nH]c2=O)CC1N=[N+]=[N-] (some centres undefined)" quantity_measured=pEC50 reading="< 4.30"
compound="CCCCCCCCCCCCO[C@H](C)COP(=O)(O)OCC1O[C@@H](n2cc(C)c(=O)[nH]c2=O)C[C@@H]1N=[N+]=[N-] (single isomer, unassigned)" quantity_measured=pEC50 reading="< 4.30"
compound=CCCCCCCCCCCCO[C@@H](C)COP(=O)(O)OC[C@H]1O[C@@H](n2cc(C)c(=O)[nH]c2=O)C[C@@H]1N=[N+]=[N-] quantity_measured=pEC50 reading="< 4.30"
compound="Cc1cn(C2CC(N=[N+]=[N-])C(COP(=O)(O)OCCOc3ccc4ccccc4c3)O2)c(=O)[nH]c1=O (centres undefined)" quantity_measured=pEC50 reading="< 3.90"

Data origin, for the record: ChEMBL document CHEMBL1129617
